- Experimental Target: recombinant SARS-CoV-2 Main protease (Mpro) (Severe acute respiratory syndrome coronavirus 2 (2019-nCoV) (SARS-CoV-2))
- Experimental Protocol: Cov Mpro Biochemical IC50 Assay
- Run Conditions: recombinant SARS-CoV-2 Mpro 7.5 nM, fluorogenic peptide substrate 40 μM; read-out: MPro IC50
pIC50: −log10 of the molar value.
Class condition met: pIC50 at least 8. Class condition not met: pIC50 below 8.

Worked cases, answers included:
In [3]: df
Out[3]:
                                   molecule        label_value
0  COc1cc(-c2cc3c(s2)c(=O)n(-c2cncc4nc(C5CC5)n(C)c24)c(=O)n3CCC#N)c(Cl)cc1F [Example 992]  condition not met
1  N#CC1(Cn2c(=O)n(-c3cncc4cccnc34)c(=O)c3sc(-c4ccccc4Cl)cc32)CC1 [Example 711]      condition met
2  O=c1[nH]c2cc(-c3ccccc3Cl)sc2c(=O)n1-c1cncc2cnn(CC(F)(F)F)c12 [Example 496]  condition not met

Now consider a different molecule.
// query Please check the record COc1cc(-c2cc3[nH]c(=O)n(-c4cncc5ccc(C)nc45)c(=O)c3s2)c(Cl)cc1F (single isomer, unassigned) [Example 1035] and state if its pIC50 is at or above 8.
// result condition not met
